Item-by-item account of ΔTm at 10 µM
target: STK3 (Homo sapiens, UniProt Q13188); construct: purchased in-house thermal shift (DSF) kinase panel (SGC Frankfurt); Promega NanoBRET for AURKA/B/C; assay: Thermal shift assay; assay type: binding; conditions: compound 10 µM; n = 3; read-out: ΔTm STK3
Sequence (Q13188 16-313): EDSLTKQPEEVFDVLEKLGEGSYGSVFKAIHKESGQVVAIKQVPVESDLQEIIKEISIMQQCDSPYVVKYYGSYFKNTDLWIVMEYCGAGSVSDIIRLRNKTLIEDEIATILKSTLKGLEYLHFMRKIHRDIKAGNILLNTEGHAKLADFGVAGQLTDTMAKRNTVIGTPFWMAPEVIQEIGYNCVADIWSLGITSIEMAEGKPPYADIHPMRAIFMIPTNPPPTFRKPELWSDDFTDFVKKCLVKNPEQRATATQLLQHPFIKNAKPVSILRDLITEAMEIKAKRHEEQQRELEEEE
Answer format: value, then unit.

CCN1CCN(C(=O)Cc2ccc(Nc3ncc(F)c(Nc4ccc(C(=O)O)cc4)n3)cc2)CC1 ... 0.1 °C
NC(=O)Cc1ccc(Nc2ncc(F)c(Nc3ccc(C(=O)Nc4ccccc4Cl)cc3)n2)cc1 ... 3.1 °C
O=C(Cc1ccc(Nc2ncc(F)c(Nc3ccc(C(=O)Nc4ccccc4Cl)cc3)n2)cc1)NCCN1CCOCC1 ... 1.3 °C

Now turn to the next compound.
Input: Request - read-out ΔTm at 10 µM | tested on STK3 (Homo sapiens, UniProt Q13188) | compound CCN1CCN(C(=O)Cc2ccc(Nc3ncc(F)c(Nc4ccc(C(=O)Nc5ccccc5)cc4)n3)cc2)CC1
Output: 2 °C
